The values you see were collected from patent US20210069143A1.

Answer each item with its documented % LC, Exposed.
Test details: Gamma radiation (25-40 kGy) and 5-month storage stability of composition components in HDPE bottles
Format: physicochemical
Assay context: HDPE bottle, T = 5 months, exposed to 25-40 kGy gamma radiation
Give the number; % LC is assumed, so skip it.

Prompt: What value of % LC, Exposed has been recorded for this entry: CCCOC(=O)c1ccc(O)cc1 [Propylparaben, propyl-para-hydroxybenzoate]
Completion: 75.2

Prompt: Repeat with CN(C)c1ccc2nc3ccc(=[N+](C)C)cc-3sc2c1 [Methylene Blue, methylene blue]
Completion: 47.3

Prompt: Repeat with O=C(O)CC(O)(CC(=O)O)C(=O)O [Citric Acid, citric acid]
Completion: 93.5

Prompt: Repeat with COC(=O)c1ccc(O)cc1 [Methylparaben, methyl-para-hydroxybenzoate]
Completion: 75.0

====

Test details: Gamma radiation (25-40 kGy) and 5-month storage stability of composition components in HDPE bottles
Assay type: physicochemical
Assay context: HDPE bottle, T = 5 months
Description: An antimicrobial composition comprising isopropyl alcohol, citric acid, methyl paraben, propyl paraben, and methylene blue in HDPE bottles was exposed to 25-40 kGy radiation, and the amount of each component detected in the solution before and after radiation was tested. The testing was repeated after 5 months of storage. […]
Reported endpoint: % Change (Unexposed vs. Exposed) (%)
Give the number; % is assumed, so skip it.

Prompt: What value of % Change (Unexposed vs. Exposed) has been recorded for this entry: COC(=O)c1ccc(O)cc1 [Methylparaben, methyl-para-hydroxybenzoate]
Completion: −0.3

Prompt: Repeat with CCCOC(=O)c1ccc(O)cc1 [Propylparaben, propyl-para-hydroxybenzoate]
Completion: −0.1

Prompt: Repeat with O=C(O)CC(O)(CC(=O)O)C(=O)O
Completion: 0.4

Prompt: Repeat with CC(C)O
Completion: −0.1

Prompt: Repeat with CN(C)c1ccc2nc3ccc(=[N+](C)C)cc-3sc2c1
Completion: −49.4

====

Test details: Gamma radiation (25-40 kGy) and 5-month storage stability of composition components in HDPE bottles
Format: physicochemical
Assay context: HDPE bottle, Exposed to gamma radiation
Reported endpoint: Concentration % Change, T = 0 vs. T = 5 Months (%)
Give the number; % is assumed, so skip it.

Prompt: What value of Concentration % Change, T = 0 vs. T = 5 Months has been recorded for this entry: CCCOC(=O)c1ccc(O)cc1 [Propylparaben, propyl-para-hydroxybenzoate]
Completion: 0.4

Prompt: Repeat with O=C(O)CC(O)(CC(=O)O)C(=O)O [Citric Acid, citric acid]
Completion: −4.0

Prompt: Repeat with COC(=O)c1ccc(O)cc1 [Methylparaben, methyl-para-hydroxybenzoate]
Completion: 0.7

Prompt: Repeat with CC(C)O [IPA, isopropyl alcohol]
Completion: 0.7

====

Answer each item with its documented % LC, Unexposed.
Test details: Gamma radiation (25-40 kGy) and 5-month storage stability of composition components in HDPE bottles
Type: physicochemical
Assay context: HDPE bottle, T = 0, not exposed to gamma radiation
Give the number; % LC is assumed, so skip it.

Prompt: What value of % LC, Unexposed has been recorded for this entry: O=C(O)CC(O)(CC(=O)O)C(=O)O
Completion: 96.3

Prompt: Repeat with COC(=O)c1ccc(O)cc1 [Methylparaben, methyl-para-hydroxybenzoate]
Completion: 74.8

Prompt: Repeat with CCCOC(=O)c1ccc(O)cc1 [Propylparaben, propyl-para-hydroxybenzoate]
Completion: 74.9

Prompt: Repeat with CN(C)c1ccc2nc3ccc(=[N+](C)C)cc-3sc2c1
Completion: 105.5
